system: MOLT-4 leukemia; assay: NCI tumour cell line growth inhibition, 48 h
Below, each entry is listed alongside its reported TGI.

Some molecules with recorded TGI:
Molecule	Result
O=C1C=Cc2cc3ccccc3c3cccc1c23	> 100 µM
COc1cc(/C=C/C(=O)OC[C@]23O[C@H]2[C@@H](OC2OC(C)C(O)C(O)C2O)C2C=CO[C@@H](OC4OC(CO)C(O)C(O)C4O)C23)ccc1O (stereo not given in full)	> 100 µM
COC(=O)[C@@]12CC3CN(Cc4c1[nH]c1ccccc41)C2CC3=O	> 100 µM
COc1cc(C2CC(c3ccc(C)cc3)=NN2C(C)=O)ccc1Oc1ccnc2cc(Cl)ccc12 (stereo not given)	> 100 µM

Could you now consider this next molecule?
Give its TGI value. Item: Cc1cc([C@H](C#N)c2nc3ccccc3s2)nc(Cl)n1
> 100 µM
